assay: Metabolic stability in Sprague-Dawley rat liver assessed as intrinsic clearance measured upto 60 min by UPLC-MS/MS analysis; assay type: ADME, tissue-based; conditions: read-out: CLH
Endpoint Label: CLint scaled (mL/min/kg)
Answers are plain numbers, in mL/min/kg.

Query CLint scaled for CN(C)CCOc1ccc2ncnc(NC3CCN(CC4CN(c5ccc(S(=O)(=O)C6CC6)cc5)C4)CC3)c2n1
17.5

###

test: Metabolic stability in CD-1 mouse liver assessed as intrinsic clearance measured upto 60 min by UPLC-MS/MS analysis; assay type: ADME, tissue-based; settings: read-out: CLH
Endpoint Label: CLint scaled (mL/min/kg)
Give bare numbers, in mL/min/kg.

Could you please provide reported CLint scaled for CN(C)CCOc1ccc2ncnc(NC3CCN(CC4CN(c5ccc(S(=O)(=O)C6CC6)cc5)C4)CC3)c2n1 ? Thanks!
28.2

These data points were gathered from ChEMBL document CHEMBL5104196.
